Record type: Ki measurement. Applies to: UniProt:P18090
Sequence (P18090 whole entry, looked up): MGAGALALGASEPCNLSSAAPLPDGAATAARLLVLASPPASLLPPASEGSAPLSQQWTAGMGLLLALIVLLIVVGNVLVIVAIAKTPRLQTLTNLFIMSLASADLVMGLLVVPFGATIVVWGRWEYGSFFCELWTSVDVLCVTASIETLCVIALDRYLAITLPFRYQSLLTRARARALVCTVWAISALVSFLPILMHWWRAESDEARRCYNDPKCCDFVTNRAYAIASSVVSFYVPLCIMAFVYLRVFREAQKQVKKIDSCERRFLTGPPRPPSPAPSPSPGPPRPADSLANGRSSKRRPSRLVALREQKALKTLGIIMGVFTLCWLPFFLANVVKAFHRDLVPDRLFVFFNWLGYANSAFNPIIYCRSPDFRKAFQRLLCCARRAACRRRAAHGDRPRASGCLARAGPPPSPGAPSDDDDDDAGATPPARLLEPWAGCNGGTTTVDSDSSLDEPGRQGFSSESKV
readout.type: Ki (µM)

CNC[C@H](O)c1ccc(O)c(O)c1 [EPINEPHRINE] : 3
CNCC(O)c1cc(O)c(O)cc1F (configuration not stated) : 63

---

Each record here notes measured EC50.
system.name: Beta-1 adrenergic receptor (Cavia porcellus, UniProt B0FL73)
Sequence (B0FL73 whole entry): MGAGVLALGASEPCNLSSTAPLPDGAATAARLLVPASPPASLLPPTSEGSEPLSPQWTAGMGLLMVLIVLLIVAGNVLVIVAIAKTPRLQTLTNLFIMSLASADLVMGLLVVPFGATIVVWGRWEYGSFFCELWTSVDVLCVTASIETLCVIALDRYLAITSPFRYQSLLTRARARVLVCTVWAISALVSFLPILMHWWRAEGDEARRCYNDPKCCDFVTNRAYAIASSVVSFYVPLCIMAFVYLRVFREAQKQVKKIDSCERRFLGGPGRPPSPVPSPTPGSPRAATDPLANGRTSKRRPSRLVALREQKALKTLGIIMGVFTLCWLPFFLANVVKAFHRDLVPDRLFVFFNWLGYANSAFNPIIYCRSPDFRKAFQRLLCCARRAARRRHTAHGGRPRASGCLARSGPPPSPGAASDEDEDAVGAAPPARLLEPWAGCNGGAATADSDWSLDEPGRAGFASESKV
assay.procedure: Agonistic potency at beta-1 adrenergic receptor for the percent maximal increase in contraction rate of isolated guinea pig atria
readout.type: EC50

CNCC(O)c1cc(O)c(O)cc1F (configuration not stated) : > 1500 nM
CNC[C@H](O)c1ccc(O)c(O)c1 [EPINEPHRINE] : 260 nM
